Kindly supply the reported Kd values for the records listed here.
study-target: T1, human CD33 IgC2 domain, recombinant (human, UniProt P20138 136-259)
T1 construct: domain: IgC2; also called hu CD33 (IgC2); hCD33-IgC2
T1 sequence (P20138 136-259 limits assumed): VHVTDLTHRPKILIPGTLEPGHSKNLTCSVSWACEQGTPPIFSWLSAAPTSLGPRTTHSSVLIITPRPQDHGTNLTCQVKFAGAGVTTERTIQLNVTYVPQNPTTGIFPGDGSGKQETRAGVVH
assay-protocol: SPR (Biacore 8K), antibody captured by anti-human Fc, antigen in solution
Answers are plain numbers, in nM.

C33B1474 (antibody, V domains shown) VH: QVQLVESGGGLVQPGGSLRLSCAASGFTFSSFGMSWVRQAPGKGLEWVANIKRDGSEKYYVDSVKGRFTISRDNAKNSLFLQMSSLRAEDTAVYYCVRDYGYFDFWGQGTLVTVSS VL: DIQMTQSPSSLSASVGDRVTITCQASQAISNYLNWYQQKPGKAPKLLIYDASNLETGVPSRFSGSGSGTDFTFTISSLQPEDFSTYFCQHYDNLPYTFGQGTKLEIK :: 3.99

Okay, here is my list. What is Kd for each of these?
1. C33B937 (antibody, V domains shown) VH: QVQLVESGGGVVQPGRSLRLSCVASGFTFSSYGMHWVRQAPGKGLEWVAVISYDGSNKYYADSVKGRFTISRDNSKNTLYLQMNSLRAEGTAVYYCAKDFRSFDWLPPDSASYHGMDVWGQGTTVTVSS VL: SYELTQPPSVSVSPGQTASITCSGDKLGDKYASWYQQKPGQSPVLVIYQDGKRPSGIPERFSGSNFGNKATLTISGTQAMDEADYYCQAWDRNTVVFGGGTKLTVL
2. C33B1601 (antibody, V domains shown) VH: EVQLVESGGGLVRPGGSLKLSCAASGFTFSNYAMSWVRQTPEKRLEWVAGISNSGYSLYYPDTLKGRFTISRDNARNTLYLQMISLRSEDTAMYYCARDGGSYPYAMDYWGHGTSVTVSS VL: DIVMTQSQKFMSTSVGDRVSVTCKASQNVGTYVAWYQQKPGHSPKALIYSASYRYSGVPDRFTGSGSGTDFTLTISNVQSEDLADYFCQQYKSYPLTFGAGTKLELK

A.
1. 56
2. 6.8
